- Read-out: Heat shock 70 kDa protein 1 (HSPA1A), gene 3303
- Assay Comment: LTEA_HepaRG_HSPA1A: Life Technologies and Expression Analysis (LTEA) Assay for Heat shock 70 kDa protein 1 (HSPA1A) using HepaRG (AID 2283502)
- Condition Context: mRNA level, 48 h; actives raise or lower the signal
Activity calls are given as the source filed them. How the source made its calls: active means hit-call score of the fitted dose curve at least 0.9, where 1 is the maximum; inactive means score below 0.9.
A correct response names exactly one class from class 1 = active, class 0 = inactive

Take a look at these entries with their results.
>  <Compound>
CC(C)(C)C(O)/C(=C\c1ccc(Cl)cc1Cl)n1cncn1 (configuration not stated)

>  <Label Value>
class 1

$$$$
>  <Compound>
CC1(c2ccc(Oc3ccccc3)cc2)OC(=O)N(Nc2ccccc2)C1=O (configuration not stated)

>  <Label Value>
class 1

$$$$
>  <Compound>
O=C(O)CCCOc1ccc(Cl)cc1Cl

>  <Label Value>
class 0

$$$$
>  <Compound>
CCC(C)(NC(=O)c1cc(Cl)c(C)c(Cl)c1)C(=O)CCl (configuration not stated)

>  <Label Value>
class 1

$$$$

stdin: Could you kindly confirm the outcome this assay logged for Clc1ccccc1-c1nnc(-c2ccccc2Cl)nn1 ?
stdout: class 0

stdin: Could you kindly confirm the outcome this assay logged for COc1nn(CSP(=S)(OC)OC)c(=O)s1 ?
stdout: class 0

stdin: Could you kindly confirm the outcome this assay logged for CCCN(CCC)c1c([N+](=O)[O-])cc(C(F)(F)F)cc1[N+](=O)[O-] ?
stdout: class 0

stdin: Could you kindly confirm the outcome this assay logged for CCc1ccc(C(=O)NN(C(=O)c2cc(C)cc(C)c2)C(C)(C)C)cc1 ?
stdout: class 1

stdin: Could you kindly confirm the outcome this assay logged for CCC(C)(C)C(=O)OC1=C(c2ccc(Cl)cc2Cl)C(=O)OC12CCCCC2 ?
stdout: class 0

stdin: Could you kindly confirm the outcome this assay logged for Cc1[nH]c(=O)n(C(C)(C)C)c(=O)c1Cl ?
stdout: class 0

stdin: Could you kindly confirm the outcome this assay logged for O=C(O)COc1ccc(Cl)cc1Cl ?
stdout: class 0

stdin: Could you kindly confirm the outcome this assay logged for CC(C)N(C(=O)COc1nnc(C(F)(F)F)s1)c1ccc(F)cc1 ?
stdout: class 0

====

- Assay Comment: CCTE_Shafer_MEA_dev_per_network_spike_spike_percent: CCTE's Neural Network Formation Assay for Percent of Spikes in a Network Spike, Shafer Lab (AID 2284054)
Active and inactive are the calls of the source. How the source made its calls: active means hit-call score of the fitted dose curve at least 0.9, where 1 is the maximum; inactive means score below 0.9.
A correct response names exactly one class from active, inactive

>  <Chem Smiles>
O=[N+]([O-])/N=C1\NCCN1Cc1ccc(Cl)nc1

>  <Label Value>
inactive

$$$$
>  <Chem Smiles>
COP(=O)(OC)OC=C(Cl)Cl

>  <Label Value>
active

$$$$

stdin: Could you kindly confirm the outcome this assay logged for CCC(C)(C)C(=O)OC1=C(c2ccc(Cl)cc2Cl)C(=O)OC12CCCCC2 ?
stdout: inactive

====

- Read-out: Cytochrome P450 3A4 (Homo sapiens)
- Assay Comment: CLD_CYP3A4_6hr: CellzDirect (CLD) Gene Expression Assay for xenobiotic metabolism (CYP3A4) at 6 hours (AID 2283680)
Records with an inconclusive call do not appear. Activity calls are given as the source filed them. How the source made its calls: active means hit-call score of the fitted dose curve at least 0.9, where 1 is the maximum; inconclusive means response in the unintended direction; inactive means score below 0.9.
A correct response names exactly one class from active, inactive

Take a look at these entries with their results.
>  <Molecule>
CC1(C)C(C=C(Cl)Cl)C1C(=O)OC(C#N)c1ccc(F)c(Oc2ccccc2)c1 (stereo not given)

>  <Label Value>
inactive

$$$$
>  <Molecule>
CCOCN(C(=O)CCl)c1c(C)cccc1CC

>  <Label Value>
active

$$$$
>  <Molecule>
O=S1OCC2C(CO1)C1(Cl)C(Cl)=C(Cl)C2(Cl)C1(Cl)Cl (stereo not given)

>  <Label Value>
active

$$$$
>  <Molecule>
CCOC1Oc2ccc(OS(C)(=O)=O)cc2C1(C)C (stereo not given)

>  <Label Value>
inactive

$$$$
>  <Molecule>
CCOc1nc(NC)nc(NC(=O)NS(=O)(=O)c2ccccc2C(=O)OC)n1

>  <Label Value>
inactive

$$$$

stdin: Could you kindly confirm the outcome this assay logged for COc1nn(CSP(=S)(OC)OC)c(=O)s1 ?
stdout: inactive

stdin: Could you kindly confirm the outcome this assay logged for Clc1ccccc1-c1nnc(-c2ccccc2Cl)nn1 ?
stdout: inactive

stdin: Could you kindly confirm the outcome this assay logged for CCc1ccc(C(=O)NN(C(=O)c2cc(C)cc(C)c2)C(C)(C)C)cc1 ?
stdout: active

stdin: Could you kindly confirm the outcome this assay logged for CNC(=O)Oc1cccc(N=CN(C)C)c1 ?
stdout: inactive

stdin: Could you kindly confirm the outcome this assay logged for CNC(=O)CSP(=S)(OC)OC ?
stdout: inactive

====

- Read-out: CYP2C8 (gene 1558)
- Assay Comment: LTEA_HepaRG_CYP2C8: Life Technologies and Expression Analysis (LTEA) Assay for CYP2C8 using HepaRG (AID 2283483)
- Condition Context: mRNA level, 48 h; actives raise or lower the signal
Activity calls are given as the source filed them. The calls were made as follows: active = hit-call score of the fitted dose curve at least 0.9, where 1 is the maximum; inactive = score below 0.9.
A correct response names exactly one class from active, inactive

Take a look at these entries with their results.
>  <Compound>
C[C@H]1[C@H](c2ccc(Cl)cc2)SC(=O)N1C(=O)NC1CCCCC1

>  <Label Value>
active

$$$$
>  <Compound>
O=[N+]([O-])c1c(Cl)c(Cl)c(Cl)c(Cl)c1Cl

>  <Label Value>
inactive

$$$$
>  <Compound>
CCN(CC)C(=O)SCc1ccc(Cl)cc1

>  <Label Value>
inactive

$$$$
>  <Compound>
CC1(c2ccc(Oc3ccccc3)cc2)OC(=O)N(Nc2ccccc2)C1=O (centres undefined)

>  <Label Value>
active

$$$$
>  <Compound>
CC(C)N(C(=O)COc1nnc(C(F)(F)F)s1)c1ccc(F)cc1

>  <Label Value>
inactive

$$$$

stdin: Could you kindly confirm the outcome this assay logged for CCOCN(C(=O)CCl)c1c(C)cccc1CC ?
stdout: active

stdin: Could you kindly confirm the outcome this assay logged for COP(=S)(OC)Oc1ccc(SC)c(C)c1 ?
stdout: inactive

stdin: Could you kindly confirm the outcome this assay logged for CCCN(CCOc1c(Cl)cc(Cl)cc1Cl)C(=O)n1ccnc1 ?
stdout: active

stdin: Could you kindly confirm the outcome this assay logged for N#CN ?
stdout: inactive

stdin: Could you kindly confirm the outcome this assay logged for CNC(=O)/C=C(\C)OP(=O)(OC)OC ?
stdout: inactive

stdin: Could you kindly confirm the outcome this assay logged for COP(=O)(OC)OC=C(Cl)Cl ?
stdout: inactive

stdin: Could you kindly confirm the outcome this assay logged for CCC(C)(C)C(=O)OC1=C(c2ccc(Cl)cc2Cl)C(=O)OC12CCCCC2 ?
stdout: inactive

stdin: Could you kindly confirm the outcome this assay logged for Clc1ccccc1-c1nnc(-c2ccccc2Cl)nn1 ?
stdout: inactive

====

- Assay Comment: CCTE_Mundy_HCI_Cortical_NOG_NeuriteLength: CCTE's Neurite Outgrowth Assay in rat cortical cells for Neurite Length, Mundy Lab (AID 2284213)
Active and inactive are the calls of the source. Rule for the calls: active = hit-call score of the fitted dose curve at least 0.9, where 1 is the maximum; inactive = score below 0.9.
A correct response names exactly one class from Y = active, N = inactive

Take a look at these entries with their results.
>  <Compound>
O=C(O)COc1ccc(Cl)cc1Cl

>  <Label Value>
N

$$$$
>  <Compound>
O=S1OCC2C(CO1)C1(Cl)C(Cl)=C(Cl)C2(Cl)C1(Cl)Cl (stereo unspecified)

>  <Label Value>
Y

$$$$
>  <Compound>
O=[N+]([O-])/N=C1\NCCN1Cc1ccc(Cl)nc1

>  <Label Value>
N

$$$$

stdin: Could you kindly confirm the outcome this assay logged for CC[C@H](C)[C@H]1O[C@]2(C=C[C@@H]1C)C[C@@H]1C[C@@H](C/C=C(\C)[C@@H](O[C@H]3C[C@H](OC)[C@@H](O[C@H]4C[C@H](OC)[C@@H](O)[C@H](C)O4)[C@H](C)O3)[C@@H](C)/C=C/C=C3\CO[C@@H]4[C@H](O)C(C)=C[C@@H](C(=O)O1)[C@]34O)O2 (tested in a mixture with another compound) ?
stdout: Y

stdin: Could you kindly confirm the outcome this assay logged for CCC(C)(C)C(=O)OC1=C(c2ccc(Cl)cc2Cl)C(=O)OC12CCCCC2 ?
stdout: N

stdin: Could you kindly confirm the outcome this assay logged for COP(=S)(OC)Oc1ccc([N+](=O)[O-])cc1 ?
stdout: Y

stdin: Could you kindly confirm the outcome this assay logged for CNC(=O)CSP(=S)(OC)OC ?
stdout: N

stdin: Could you kindly confirm the outcome this assay logged for CC(C)N(C(=O)COc1nnc(C(F)(F)F)s1)c1ccc(F)cc1 ?
stdout: N

====

- Assay Comment: CCTE_Padilla_ZF_144hpf_TERATOSCORE: (Legacy) CCTE's 144 Hour Post-fertilization zebrafish Assay Teratoscore, Padilla Lab (AID 2283679)
Calls of active or inactive are those of the source. The calls were made as follows: active = hit-call score of the fitted dose curve at least 0.9, where 1 is the maximum; inactive = score below 0.9.
A correct response names exactly one class from active, inactive

>  <Molecule>
OCCOc1ccccc1

>  <Label Value>
inactive

$$$$
>  <Molecule>
CN1CSC(=S)N(C)C1

>  <Label Value>
active

$$$$
>  <Molecule>
COC(=O)c1ccccc1CS(=O)(=O)NC(=O)Nc1nc(OC)cc(OC)n1

>  <Label Value>
inactive

$$$$

stdin: Could you kindly confirm the outcome this assay logged for O=C(O)COc1ccc(Cl)cc1Cl ?
stdout: inactive

stdin: Could you kindly confirm the outcome this assay logged for O=C(NC(=O)c1c(F)cccc1F)Nc1ccc(OC(F)(F)C(F)OC(F)(F)F)c(Cl)c1 (stereo unspecified) ?
stdout: inactive

stdin: Could you kindly confirm the outcome this assay logged for CCOc1nc(NC)nc(NC(=O)NS(=O)(=O)c2ccccc2C(=O)OC)n1 ?
stdout: inactive

stdin: Could you kindly confirm the outcome this assay logged for CC[C@H](C)[C@H]1O[C@]2(C=C[C@@H]1C)C[C@@H]1C[C@@H](C/C=C(\C)[C@@H](O[C@H]3C[C@H](OC)[C@@H](O[C@H]4C[C@H](OC)[C@@H](O)[C@H](C)O4)[C@H](C)O3)[C@@H](C)/C=C/C=C3\CO[C@@H]4[C@H](O)C(C)=C[C@@H](C(=O)O1)[C@]34O)O2 (tested in a mixture with another compound) ?
stdout: active

stdin: Could you kindly confirm the outcome this assay logged for COP(=O)(OC)OC=C(Cl)Cl ?
stdout: active

stdin: Could you kindly confirm the outcome this assay logged for Cc1[nH]c(=O)n(C(C)(C)C)c(=O)c1Cl ?
stdout: inactive

stdin: Could you kindly confirm the outcome this assay logged for CCOCN(C(=O)CCl)c1c(C)cccc1CC ?
stdout: active

stdin: Could you kindly confirm the outcome this assay logged for COc1cc(OC)nc(NC(=O)NS(=O)(=O)c2cc(NC=O)ccc2C(=O)N(C)C)n1 ?
stdout: inactive

stdin: Could you kindly confirm the outcome this assay logged for CCc1ccc(C(=O)NN(C(=O)c2cc(C)cc(C)c2)C(C)(C)C)cc1 ?
stdout: inactive

stdin: Could you kindly confirm the outcome this assay logged for Clc1ccccc1-c1nnc(-c2ccccc2Cl)nn1 ?
stdout: inactive
